Reference for the values: PubChem BioAssay

measuredTarget: Potassium voltage-gated channel subfamily KQT member 1 (Homo sapiens) (UniProt P51787)
Sequence (P51787 whole entry, looked up): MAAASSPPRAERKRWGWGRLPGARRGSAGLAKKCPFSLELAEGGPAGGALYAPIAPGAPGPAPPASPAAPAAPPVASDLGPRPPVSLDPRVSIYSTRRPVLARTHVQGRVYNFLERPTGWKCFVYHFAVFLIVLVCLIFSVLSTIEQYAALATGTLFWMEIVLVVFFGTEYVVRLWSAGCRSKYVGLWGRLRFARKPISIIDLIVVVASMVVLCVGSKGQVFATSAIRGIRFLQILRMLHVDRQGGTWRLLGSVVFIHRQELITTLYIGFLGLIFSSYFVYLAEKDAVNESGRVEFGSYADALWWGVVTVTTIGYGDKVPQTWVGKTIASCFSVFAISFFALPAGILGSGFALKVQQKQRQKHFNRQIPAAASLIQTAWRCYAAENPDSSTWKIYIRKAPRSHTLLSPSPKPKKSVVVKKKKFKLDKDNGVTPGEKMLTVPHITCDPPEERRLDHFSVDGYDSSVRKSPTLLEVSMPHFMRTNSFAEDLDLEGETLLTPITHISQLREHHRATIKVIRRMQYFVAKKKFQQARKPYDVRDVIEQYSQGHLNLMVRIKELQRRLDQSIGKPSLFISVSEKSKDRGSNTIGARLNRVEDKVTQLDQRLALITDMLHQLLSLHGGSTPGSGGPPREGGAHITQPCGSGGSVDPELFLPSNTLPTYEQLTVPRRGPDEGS
assayRemarks: KCNQ1 potassium channel potentiators, confirmation, FluxOR thallium flux, CHO cells, duplicates (AID 493007)
setupConditions: KCNQ1 cell line, FluxOR thallium flux fluorescence, at 10 µM, % of reference activator effect, buffer zero
The source made the active and inactive calls.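 The calls were made as follows: active = potentiation averaged over duplicate wells exceeding buffer-only control mean by more than 3 SD; inactive = the rest.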
Possible outcomes: true (1) for active, false (0) for inactive

compound: Cc1cc(Nc2cc(N3CCN(C)CC3)nc(Sc3ccc(NC(=O)C4CC4)cc3)n2)n[nH]1
group: true (1)
//
compound: Cc1cc(Cl)ccc1OCC(=O)NNC(=O)C1CCCO1 (stereo unspecified)
group: false (0)
//
compound: CC(=O)c1c(N2CCCC2)[nH]c(-c2ccccc2)nc1=S
group: false (0)
//
compound: O=c1c2cc(Br)ccc2nc(-c2ccccc2)n1O
group: true (1)
//
compound: COC(=O)c1c(N)sc2c1CCN(c1ncc(C(F)(F)F)cc1Cl)C2
group: false (0)
//
compound: CCOC(=O)N/C(N)=N/c1nc2ccccc2s1
group: false (0)
//
compound: COc1ccc(CNC(=O)C2CC(c3cccc(OC)c3)=NO2)cc1 (stereo unspecified)
group: false (0)
//
compound: Cn1c(=NC(=O)c2ccco2)sc2cccc(F)c21
group: false (0)
//
compound: COC(=O)C1=NN(C(=O)c2ccc(C)cc2)C(O)(c2ccc(Cl)cc2)C1 (stereo unspecified)
group: true (1)
//
compound: CCOC(=O)c1sc(NC(=S)NC(=O)c2ccco2)nc1C
group: true (1)
//
compound: CC1SCC(=NOCc2c(Cl)cccc2Cl)CS1 (stereo unspecified)
group: false (0)

----------
measuredTarget: Potassium voltage-gated channel subfamily KQT member 2 (Rattus norvegicus)
assayRemarks: rat KCNQ2 channel potentiation, selectivity assay for KCNQ1 potentiator project, KCNQ2-CHO-K1 cells (AID 493009);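 also: assay conditions were tuned for KCNQ1 rather than KCNQ2 modulators; signal is max minus min fluorescence divided by baseline after thallium stimulus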
setupConditions: FluxOR thallium flux fluorescence, at 10 µM, scaled: buffer 0, activator control 100
The source made the active and inactive calls.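 How the source made its calls: active means mean duplicate potentiation above the buffer control mean plus 5 SD of buffer wells; inactive means the rest.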
Outcome codes: active, inactive

compound: O=C(NC(=S)Nc1ccc2c(c1)OCCO2)c1ccco1
group: active
//
compound: Cc1cc(NC(=O)CCC(=O)N(C2CC2)C(C(=O)NC(C)(C)C)c2ccccc2Cl)no1 (stereo unspecified)
group: inactive
//
compound: CCCOc1ccc(C(=O)NNC(=S)NC(=O)c2ccccc2)cc1
group: active
//
compound: CCOc1ccc2nc(/N=C/c3c(C)[nH]n(-c4ccc(C)cc4)c3=O)sc2c1
group: active
//
compound: Cn1cccc1/C=N/n1c(-c2ccc(Cl)cc2Cl)n[nH]c1=S
group: inactive
//
compound: CN1CCN(C=Nc2nc3ccccc3nc2N2CCCC2)CC1
group: inactive
//
compound: Cc1ccc(C)c(NC(=S)N/N=C2/CCCCc3ccccc32)c1
group: active
//
compound: CCOc1ncccc1C(=O)OCc1ccc(C#N)cc1
group: active
//
compound: O=C(NC(=S)N1CCCCCC1)c1ccccc1
group: inactive
//
compound: CC(=O)c1c(NC(=O)c2ccccc2)[nH]c(-c2ccccc2)nc1=S
group: active
//
compound: Cc1ccc(OCC(=O)NNC(=S)NC(=O)C2CCCCC2)c(C)c1
group: inactive

----------
assayRemarks: thallium flux activation in parental CHO cells, counter-screen for KCNQ1 potentiator project (AID 493006);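 as to activation: fluorescence ratio of max minus min over baseline after K+ and Tl+ depolarization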
setupConditions: parental CHO-K1 cells, FluxOR thallium flux, at 10 µM
Active and inactive are the calls of the source.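 Rule for the calls: active = duplicate-averaged activation above buffer control mean plus 5 SD of those controls; inactive = the rest.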
Outcomes: active, inactive

compound: CCOC(=O)COc1cc(-n2c(=S)[nH]c3cc(OC)c(OC)cc3c2=O)c(Cl)cc1Cl
group: inactive
//
compound: O=C(NNC(=O)c1ccc(Cl)c(Cl)c1)c1ccncc1
group: inactive
//
compound: C/C(=C/CCC(C)[C@H]1CC[C@@]2(C)C3=C(CC[C@]12C)[C@@]1(C)CCC(=O)C(C)(C)[C@@H]1CC3)C(=O)O (stereo not given in full)
group: active
//
compound: c1csc(-c2csc3ncnc(NCCCN4CCOCC4)c23)c1
group: inactive
//
compound: COc1ccc(-n2nc(C(=O)NCC(=O)N3CCC(C(N)=O)CC3)c3ccccc3c2=O)cc1
group: inactive
//
compound: CCn1c(O)c(N=NC2=NC(=O)CS2)c2ccccc21
group: inactive
//
compound: Cc1noc(C)c1CSc1ncnc2sc(C)c(C)c12
group: inactive
//
compound: O=C(NC(=S)Nc1cc(C(F)(F)F)ccc1N1CCOCC1)c1sc2ccccc2c1Cl
group: inactive
//
compound: CCOC(=O)c1cc2c(C)n(-c3ccc(C)cc3)c(C)c2ccc1=O
group: inactive
//
compound: COc1ccc(OC)c(NC(=S)NC(=O)c2ccc(Br)o2)c1
group: inactive
